Where do the numbers come from? From patent US8309685B2.

target: D168A mutant of the HCV NS3/4A 1b protease enzyme (Hepatitis C virus genotype 1b, UniProt P26663, D1194A); construct: 10× stocks of NS3/4A protease enzyme from Bioenza (Mountain View, Calif.); purchased Bioenza (Mountain View, Calif.); experiment: HCV Protease FRET Assay (IC50), D168A mutant; assay type: biochemical; conditions: read-out: Inhibition, HCV D168A; D168A enzyme, FRET assay
pIC50: −log10 of the molar value.
Quick reference: pIC50 of the listed items.
Quantity name: pIC50

- Compound: "C=C[C@@H]1C[C@]1(NC(=O)[C@@H]1C[C@@H](Oc2cc(-c3ccccc3)nc3cc(OC)ccc23)CN1C(=O)[C@H](CCN(C)C(=O)CCl)NC(=O)OC(C)(C)C)C(=O)NS(=O)(=O)c1ccccc1"
  Quantity name: "pIC50"
  Reported measurement: "> 8.00"
- Compound: "C=C[C@@H]1C[C@]1(NC(=O)[C@@H]1C[C@@H](Oc2cc(-c3ccccc3)nc3cc(OC)ccc23)CN1C(=O)[C@H](CNC(=O)C(C)Br)NC(=O)OC(C)(C)C)C(=O)NS(=O)(=O)c1ccccc1 (stereo partly drawn)"
  Quantity name: "pIC50"
  Reported measurement: "7.00 to 8.00"
- Compound: "C=C[C@@H]1C[C@]1(NC(=O)[C@@H]1C[C@@H](Oc2cc(-c3ccccc3)nc3cc(OC)ccc23)CN1C(=O)CNC(=O)/C=C/C)C(=O)NS(=O)(=O)c1ccccc1"
  Quantity name: "pIC50"
  Reported measurement: "5.00 to 6.00"
- Compound: "C=C[C@@H]1C[C@]1(NC(=O)[C@@H]1C[C@@H](Oc2cc(-c3ccccc3)nc3cc(OC)ccc23)CN1C(=O)CNC(=O)[C@@H](Cl)c1ccccc1)C(=O)NS(=O)(=O)c1ccccc1 (stereo in doubt)"
  Quantity name: "pIC50"
  Reported measurement: "5.00 to 6.00"
- Compound: "C=C[C@@H]1C[C@]1(NC(=O)[C@@H]1C[C@@H](Oc2cc(-c3ccccc3)nc3cc(OC)ccc23)CN1C(=O)[C@H](CCNC(=O)C(C)Br)NC(=O)OC(C)(C)C)C(=O)NS(=O)(=O)c1ccccc1 (stereo partly drawn)"
  Quantity name: "pIC50"
  Reported measurement: "6.00 to 7.00"
- Compound: "C=CC(=O)N(C)CC[C@H](NC(=O)OC(C)(C)C)C(=O)N1C[C@H](Oc2cc(-c3ccccc3)nc3cc(OC)ccc23)C[C@H]1C(=O)N[C@]1(C(=O)NS(=O)(=O)c2ccccc2)C[C@H]1C=C"
  Quantity name: "pIC50"
  Reported measurement: "7.00 to 8.00"
- Compound: "C=C[C@@H]1C[C@]1(NC(=O)[C@@H]1C[C@@H](Oc2cc(-c3ccccc3)nc3cc(OC)ccc23)CN1C(=O)[C@H](CNC(=O)/C=C/CN(C)C)NC(=O)OC(C)(C)C)C(=O)NS(=O)(=O)c1ccccc1"
  Quantity name: "pIC50"
  Reported measurement: "5.00 to 6.00"
- Compound: "C=C[C@@H]1C[C@]1(NC(=O)[C@@H]1C[C@@H](Oc2cc(-c3ccccc3)nc3cc(OC)ccc23)CN1C(=O)[C@H](CC1CO1)NC(=O)OC(C)(C)C)C(=O)NS(=O)(=O)c1ccccc1 (stereo partly drawn)"
  Quantity name: "pIC50"
  Reported measurement: "6.00 to 7.00"
- Compound: "C=C[C@@H]1C[C@]1(NC(=O)[C@@H]1C[C@@H](Oc2cc(-c3ccccc3)nc3cc(OC)ccc23)CN1C(=O)[C@H](CCNC(=O)C(C)Cl)NC(=O)OC(C)(C)C)C(=O)NS(=O)(=O)c1ccccc1 (stereo partly drawn)"
  Quantity name: "pIC50"
  Reported measurement: "5.00 to 6.00"
- Compound: "C=CC(=O)NCC(=O)N1C[C@H](Oc2cc(-c3ccccc3)nc3cc(OC)ccc23)C[C@H]1C(=O)N[C@]1(C(=O)NS(=O)(=O)c2ccccc2)C[C@H]1C=C"
  Quantity name: "pIC50"
  Reported measurement: "7.00 to 8.00"
- Compound: "C=CC(=O)OC(C)(C)[C@H](NC(=O)OC(C)(C)C)C(=O)N1CC(Oc2cc(-c3ccccc3)nc3cc(OC)ccc23)C[C@H]1C(=O)N[C@]1(C(=O)NS(=O)(=O)C2CC2)C[C@H]1C=C (stereo partly drawn)"
  Quantity name: "pIC50"
  Reported measurement: "> 8.00"
- Compound: "C=C[C@@H]1C[C@]1(NC(=O)[C@@H]1C[C@@H](Oc2cc(-c3ccccc3)nc3cc(OC)ccc23)CN1C(=O)[C@H](CNC(=O)[C@H](C)Cl)NC(=O)OC(C)(C)C)C(=O)NS(=O)(=O)c1ccccc1"
  Quantity name: "pIC50"
  Reported measurement: "6.00 to 7.00"
- Compound: "C=C[C@@H]1C[C@]1(NC(=O)[C@@H]1C[C@@H](Oc2cc(-c3ccccc3)nc3cc(OC)ccc23)CN1C(=O)[C@H](CN(C)C(=O)/C=C/CN(C)C)NC(=O)OC(C)(C)C)C(=O)NS(=O)(=O)c1ccccc1"
  Quantity name: "pIC50"
  Reported measurement: "6.00 to 7.00"
- Compound: "C=C[C@@H]1C[C@]1(NC(=O)[C@@H]1C[C@@H](Oc2cc(-c3ccccc3)nc3cc(OC)ccc23)CN1C(=O)[C@H](CN(C)C(=O)CCl)NC(=O)OC(C)(C)C)C(=O)NS(=O)(=O)c1ccccc1"
  Quantity name: "pIC50"
  Reported measurement: "> 8.00"
- Compound: "C=C[C@@H]1C[C@]1(NC(=O)[C@@H]1C[C@@H](Oc2cc(-c3ccccc3)nc3cc(OC)ccc23)CN1C(=O)[C@H](CN(C)C(=O)[C@H](Cl)c1ccccc1)NC(=O)OC(C)(C)C)C(=O)NS(=O)(=O)c1ccccc1"
  Quantity name: "pIC50"
  Reported measurement: "6.00 to 7.00"
- Compound: "C=CC(=O)NC[C@H](NC(=O)OC(C)(C)C)C(=O)N1C[C@H](Oc2cc(-c3ccccc3)nc3cc(OC)ccc23)C[C@H]1C(=O)N[C@]1(C(=O)NS(=O)(=O)c2ccccc2)C[C@H]1C=C"
  Quantity name: "pIC50"
  Reported measurement: "7.00 to 8.00"
- Compound: "C=C[C@@H]1C[C@]1(NC(=O)[C@@H]1C[C@@H](Oc2cc(-c3ccccc3)nc3cc(OC)ccc23)CN1C(=O)[C@H](CNC(=O)CCl)NC(=O)OC(C)(C)C)C(=O)NS(=O)(=O)c1ccccc1"
  Quantity name: "pIC50"
  Reported measurement: "7.00 to 8.00"
- Compound: "C=CC(=O)N[C@H](C)C(=O)N1C[C@H](Oc2cc(-c3ccccc3)nc3cc(OC)ccc23)C[C@H]1C(=O)N[C@]1(C(=O)NS(=O)(=O)c2ccccc2)C[C@H]1C=C"
  Quantity name: "pIC50"
  Reported measurement: "> 8.00"

----------
target: A156T mutant of the HCV NS3/4A 1b protease enzyme (Hepatitis C virus genotype 1b, UniProt P26663, A1182T); construct: 10× stocks of NS3/4A protease enzyme from Bioenza (Mountain View, Calif.); purchased Bioenza (Mountain View, Calif.); experiment: HCV Protease FRET Assay (IC50), A156T mutant; assay type: biochemical; conditions: read-out: Inhibition, HCV A156T; A156T enzyme, FRET assay
pIC50: −log10 of the molar value.
Quick reference: pIC50 of the listed items.
Quantity name: pIC50

- Molecule: "C=CC(=O)NCC(=O)N1C[C@H](Oc2cc(-c3ccccc3)nc3cc(OC)ccc23)C[C@H]1C(=O)N[C@]1(C(=O)NS(=O)(=O)c2ccccc2)C[C@H]1C=C [Compound I-27]"
  Reported measurement: "7.00 to 8.00"
- Molecule: "C=CC(=O)NCC(=O)N1C[C@H](Oc2cc(-c3ccccc3)nc3cc(OC)ccc23)C[C@H]1C(=O)N[C@]1(C(=O)NS(=O)(=O)C2CC2)C[C@H]1C=C [Compound I-39]"
  Reported measurement: "> 8.00"
- Molecule: "C=C[C@@H]1C[C@]1(NC(=O)[C@@H]1C[C@@H](Oc2cc(-c3ccccc3)nc3cc(OC)ccc23)CN1C(=O)[C@H](CNC(=O)C(C)Br)NC(=O)OC(C)(C)C)C(=O)NS(=O)(=O)c1ccccc1 (some centres unmarked) [Compound I-22]"
  Reported measurement: "7.00 to 8.00"
- Molecule: "C=C[C@@H]1C[C@]1(NC(=O)[C@@H]1C[C@@H](Oc2cc(-c3ccccc3)nc3cc(OC)ccc23)CN1C(=O)[C@H](CNC(=O)C(Cl)c1ccccc1)NC(=O)OC(C)(C)C)C(=O)NS(=O)(=O)c1ccccc1 (some centres unmarked) [Compound I-23]"
  Reported measurement: "5.00 to 6.00"
- Molecule: "C=CC(=O)NC[C@H](NC(=O)OC(C)(C)C)C(=O)N1C[C@H](Oc2cc(-c3ccccc3)nc3cc(OC)ccc23)C[C@H]1C(=O)N[C@]1(C(=O)NS(=O)(=O)C2CC2)C[C@H]1C=C [Compound I-35]"
  Reported measurement: "> 8.00"
- Molecule: "C=C[C@@H]1C[C@]1(NC(=O)[C@@H]1C[C@@H](Oc2cc(-c3ccccc3)nc3cc(OC)ccc23)CN1C(=O)[C@H](CCNC(=O)C(C)Br)NC(=O)OC(C)(C)C)C(=O)NS(=O)(=O)c1ccccc1 (some centres unmarked) [Compound I-20]"
  Reported measurement: "6.00 to 7.00"
- Molecule: "C=CC(=O)NCC[C@H](NC(=O)OC(C)(C)C)C(=O)N1C[C@H](Oc2cc(-c3ccccc3)nc3cc(OC)ccc23)C[C@H]1C(=O)N[C@]1(C(=O)NS(=O)(=O)c2ccccc2)C[C@H]1C=C [Compound I-8]"
  Reported measurement: "7.00 to 8.00"
- Molecule: "C=CC(=O)NC[C@H](NC(=O)OC(C)(C)C)C(=O)N1C[C@H](Oc2cc(-c3ccccc3)nc3cc(OC)ccc23)C[C@H]1C(=O)N[C@]1(C(=O)NS(=O)(=O)c2ccccc2)C[C@H]1C=C [Compound I-3]"
  Reported measurement: "7.00 to 8.00"
- Molecule: "C=C[C@@H]1C[C@]1(NC(=O)[C@@H]1C[C@@H](Oc2cc(-c3ccccc3)nc3cc(OC)ccc23)CN1C(=O)[C@H](CNC(=O)CCl)NC(=O)OC(C)(C)C)C(=O)NS(=O)(=O)c1ccccc1 [Compound I-7]"
  Reported measurement: "7.00 to 8.00"
- Molecule: "C=C[C@@H]1C[C@]1(NC(=O)[C@@H]1C[C@@H](Oc2cc(-c3ccccc3)nc3cc(OC)ccc23)CN1C(=O)[C@H](CCN(C)C(=O)CCl)NC(=O)OC(C)(C)C)C(=O)NS(=O)(=O)c1ccccc1 [Compound I-9]"
  Reported measurement: "> 8.00"
- Molecule: "C=CC(=O)N(C)C[C@H](NC(=O)OC(C)(C)C)C(=O)N1C[C@H](Oc2cc(-c3ccccc3)nc3cc(OC)ccc23)C[C@H]1C(=O)N[C@]1(C(=O)NS(=O)(=O)c2ccccc2)C[C@H]1C=C [Compound I-28]"
  Reported measurement: "7.00 to 8.00"
- Molecule: "C=CC(=O)N(C)CC[C@H](NC(=O)OC(C)(C)C)C(=O)N1C[C@H](Oc2cc(-c3ccccc3)nc3cc(OC)ccc23)C[C@H]1C(=O)N[C@]1(C(=O)NS(=O)(=O)c2ccccc2)C[C@H]1C=C [Compound I-12]"
  Reported measurement: "7.00 to 8.00"
- Molecule: "C=CC(=O)N[C@H](C)C(=O)N1C[C@H](Oc2cc(-c3ccccc3)nc3cc(OC)ccc23)C[C@H]1C(=O)N[C@]1(C(=O)NS(=O)(=O)c2ccccc2)C[C@H]1C=C [Compound I-46]"
  Reported measurement: "> 8.00"
- Molecule: "C=C[C@@H]1C[C@]1(NC(=O)[C@@H]1C[C@@H](Oc2cc(-c3ccccc3)nc3cc(OC)ccc23)CN1C(=O)[C@H](CN(C)C(=O)[C@H](Cl)c1ccccc1)NC(=O)OC(C)(C)C)C(=O)NS(=O)(=O)c1ccccc1 [Compound I-33]"
  Reported measurement: "6.00 to 7.00"
